Data provenance is the supplement of paper PMC10065799.

measurement_target: Grb2 SH2 (UniProt P62993)
Sequence (P62993 whole entry, looked up): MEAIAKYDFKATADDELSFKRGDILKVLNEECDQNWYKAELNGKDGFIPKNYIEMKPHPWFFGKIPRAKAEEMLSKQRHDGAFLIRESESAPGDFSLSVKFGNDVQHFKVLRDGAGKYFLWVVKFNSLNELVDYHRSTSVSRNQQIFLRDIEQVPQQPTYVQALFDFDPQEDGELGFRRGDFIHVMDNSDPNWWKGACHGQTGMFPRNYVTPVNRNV
protocol_description: SH2 binding enrichment of the phosphorylated peptide, bacterial display (enrichment ratio); higher = better substrate or ligand; peptides without Tyr show the background
property_label: SH2 binding enrichment

Query string: // lookup SH2 binding enrichment for TDKLFYIYTPG [SLC27A4_Y243_S247P]
Result string: 0.684

API: the following record is the query input.
Query string: // lookup SH2 binding enrichment for KPIETYFSKNF [PLP1_Y50_L46P_YF]
Result string: 0.663

* * *

measurement_target: Fyn (UniProt P06241)
Sequence (P06241 whole entry, looked up): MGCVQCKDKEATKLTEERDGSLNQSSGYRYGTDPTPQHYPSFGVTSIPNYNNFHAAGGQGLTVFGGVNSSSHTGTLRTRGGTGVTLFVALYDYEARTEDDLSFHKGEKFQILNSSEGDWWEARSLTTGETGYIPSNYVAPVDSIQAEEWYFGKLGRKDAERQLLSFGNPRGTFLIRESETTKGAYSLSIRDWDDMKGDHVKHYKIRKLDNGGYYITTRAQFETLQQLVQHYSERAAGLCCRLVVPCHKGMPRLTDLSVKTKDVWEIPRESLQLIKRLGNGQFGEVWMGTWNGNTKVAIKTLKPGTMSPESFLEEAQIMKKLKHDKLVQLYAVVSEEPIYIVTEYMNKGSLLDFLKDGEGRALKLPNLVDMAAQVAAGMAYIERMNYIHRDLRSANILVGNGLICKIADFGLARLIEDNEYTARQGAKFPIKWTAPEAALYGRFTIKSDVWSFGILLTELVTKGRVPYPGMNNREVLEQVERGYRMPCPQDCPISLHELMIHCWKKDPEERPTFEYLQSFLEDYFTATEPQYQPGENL
protocol_description: phosphorylation enrichment, bacterial display (enrichment ratio); higher = better substrate or ligand; peptides without Tyr show the background
Parameter threshold = 0.5. Response is T when phosphorylation enrichment meets or exceeds it, else F.

// known answers, use as guide
Query string: Is the recorded value of phosphorylation enrichment equal to or greater than 0.5 for this sequence? GAVDTYCRHNF [HLA-DRB1_Y107_A102G_YF]
Result string: F

Query string: Is the recorded value of phosphorylation enrichment equal to or greater than 0.5 for this sequence? DSLASYLDKVR [KRT10_Y160_R156S]
Result string: F

Query string: Is the recorded value of phosphorylation enrichment equal to or greater than 0.5 for this sequence? ATLDVYNPFET [SCAMP3_Y41]
Result string: T

Query string: Is the recorded value of phosphorylation enrichment equal to or greater than 0.5 for this sequence? SKLTIYDGRPS [MTM1_Y277_A279G]
Result string: T

Query string: Is the recorded value of phosphorylation enrichment equal to or greater than 0.5 for this sequence? AGADGYDYLAP [FOXL2_Y186_G187D]
Result string: T

Query string: Is the recorded value of phosphorylation enrichment equal to or greater than 0.5 for this sequence? RELGEYGLQAY [ALDH2_Y497]
Result string: T

More entries:
Query string: Is the recorded value of phosphorylation enrichment equal to or greater than 0.5 for this sequence? WQQQSYLDSGS [CTNNB1_Y30_I35S]
Result string: F

Query string: Is the recorded value of phosphorylation enrichment equal to or greater than 0.5 for this sequence? NGTVTYAIVAG [CDH23_Y1672]
Result string: T

Query string: Is the recorded value of phosphorylation enrichment equal to or greater than 0.5 for this sequence? KPAFSYTSSST [SIM1_Y356]
Result string: T

Query string: Is the recorded value of phosphorylation enrichment equal to or greater than 0.5 for this sequence? TKDTFYKQRMF [GBA_Y451_P454R]
Result string: F

Query string: Is the recorded value of phosphorylation enrichment equal to or greater than 0.5 for this sequence? GVPLGYPIKAS [ELN_Y206_P211S]
Result string: F

* * *

Listing of entries alongside the reported phosphorylation enrichment.
measurement_target: MERTK (UniProt Q12866)
Sequence (Q12866 whole entry, looked up): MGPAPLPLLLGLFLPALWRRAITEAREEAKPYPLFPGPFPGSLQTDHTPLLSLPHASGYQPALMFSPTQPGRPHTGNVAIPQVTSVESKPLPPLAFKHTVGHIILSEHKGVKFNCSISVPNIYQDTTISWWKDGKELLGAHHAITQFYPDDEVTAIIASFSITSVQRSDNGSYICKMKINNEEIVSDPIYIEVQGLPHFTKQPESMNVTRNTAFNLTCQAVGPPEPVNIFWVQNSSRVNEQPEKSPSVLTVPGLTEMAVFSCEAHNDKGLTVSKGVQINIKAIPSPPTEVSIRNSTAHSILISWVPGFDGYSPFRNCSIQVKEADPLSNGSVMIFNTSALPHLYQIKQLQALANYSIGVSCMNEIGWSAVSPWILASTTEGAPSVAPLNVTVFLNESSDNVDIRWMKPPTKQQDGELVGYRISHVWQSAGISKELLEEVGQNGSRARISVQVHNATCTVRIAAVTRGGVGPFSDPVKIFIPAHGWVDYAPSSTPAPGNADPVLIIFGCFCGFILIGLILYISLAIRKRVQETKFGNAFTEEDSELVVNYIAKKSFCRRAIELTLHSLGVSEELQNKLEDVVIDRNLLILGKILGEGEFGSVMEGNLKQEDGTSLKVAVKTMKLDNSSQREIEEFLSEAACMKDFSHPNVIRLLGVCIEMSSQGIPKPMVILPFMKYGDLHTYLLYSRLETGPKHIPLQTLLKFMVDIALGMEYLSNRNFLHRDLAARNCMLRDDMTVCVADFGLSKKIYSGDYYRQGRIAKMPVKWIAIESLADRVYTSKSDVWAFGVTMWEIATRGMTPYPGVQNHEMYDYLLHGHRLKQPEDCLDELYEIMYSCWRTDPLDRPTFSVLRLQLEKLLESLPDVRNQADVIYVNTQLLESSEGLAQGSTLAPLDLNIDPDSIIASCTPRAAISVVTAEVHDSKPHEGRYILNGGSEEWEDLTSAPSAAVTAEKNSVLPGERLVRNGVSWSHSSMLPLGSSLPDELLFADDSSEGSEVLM
protocol_description: phosphorylation enrichment, bacterial display (enrichment ratio); higher = better substrate or ligand; peptides without Tyr show the background
Note: the reply should be a number with no unit written.

Example results:
Query string: Param readout = phosphorylation enrichment; param system = MERTK (UniProt Q12866); param query = GIADDYDKKKP [EIF1_Y54_L59P] ; response: value
Result string: 0.378

Query string: Param readout = phosphorylation enrichment; param system = MERTK (UniProt Q12866); param query = SVTGTYSPALN [TP53_Y126_C124G] ; response: value
Result string: 0.444

Query string: Param readout = phosphorylation enrichment; param system = MERTK (UniProt Q12866); param query = LYDPDFMKVIL [CYP4A22_Y104_Y104F] ; response: value
Result string: 2.57

Query string: Param readout = phosphorylation enrichment; param system = MERTK (UniProt Q12866); param query = KPPPSYESEEE [BRD4_Y599_T598S] ; response: value
Result string: 0.543

Query string: Param readout = phosphorylation enrichment; param system = MERTK (UniProt Q12866); param query = ESDFTYSSSFE [SRPK2_Y427_YF] ; response: value
Result string: 0.438

More entries:
Query string: Param readout = phosphorylation enrichment; param system = MERTK (UniProt Q12866); param query = YLRTGYSIPYG [TGM1_Y370_V372I] ; response: value
Result string: 1.21

Query string: Param readout = phosphorylation enrichment; param system = MERTK (UniProt Q12866); param query = RELGEYGLQAY [ALDH2_Y497] ; response: value
Result string: 0.562

* * *

measurement_target: Jak2 (UniProt O60674)
Sequence (O60674 whole entry, looked up): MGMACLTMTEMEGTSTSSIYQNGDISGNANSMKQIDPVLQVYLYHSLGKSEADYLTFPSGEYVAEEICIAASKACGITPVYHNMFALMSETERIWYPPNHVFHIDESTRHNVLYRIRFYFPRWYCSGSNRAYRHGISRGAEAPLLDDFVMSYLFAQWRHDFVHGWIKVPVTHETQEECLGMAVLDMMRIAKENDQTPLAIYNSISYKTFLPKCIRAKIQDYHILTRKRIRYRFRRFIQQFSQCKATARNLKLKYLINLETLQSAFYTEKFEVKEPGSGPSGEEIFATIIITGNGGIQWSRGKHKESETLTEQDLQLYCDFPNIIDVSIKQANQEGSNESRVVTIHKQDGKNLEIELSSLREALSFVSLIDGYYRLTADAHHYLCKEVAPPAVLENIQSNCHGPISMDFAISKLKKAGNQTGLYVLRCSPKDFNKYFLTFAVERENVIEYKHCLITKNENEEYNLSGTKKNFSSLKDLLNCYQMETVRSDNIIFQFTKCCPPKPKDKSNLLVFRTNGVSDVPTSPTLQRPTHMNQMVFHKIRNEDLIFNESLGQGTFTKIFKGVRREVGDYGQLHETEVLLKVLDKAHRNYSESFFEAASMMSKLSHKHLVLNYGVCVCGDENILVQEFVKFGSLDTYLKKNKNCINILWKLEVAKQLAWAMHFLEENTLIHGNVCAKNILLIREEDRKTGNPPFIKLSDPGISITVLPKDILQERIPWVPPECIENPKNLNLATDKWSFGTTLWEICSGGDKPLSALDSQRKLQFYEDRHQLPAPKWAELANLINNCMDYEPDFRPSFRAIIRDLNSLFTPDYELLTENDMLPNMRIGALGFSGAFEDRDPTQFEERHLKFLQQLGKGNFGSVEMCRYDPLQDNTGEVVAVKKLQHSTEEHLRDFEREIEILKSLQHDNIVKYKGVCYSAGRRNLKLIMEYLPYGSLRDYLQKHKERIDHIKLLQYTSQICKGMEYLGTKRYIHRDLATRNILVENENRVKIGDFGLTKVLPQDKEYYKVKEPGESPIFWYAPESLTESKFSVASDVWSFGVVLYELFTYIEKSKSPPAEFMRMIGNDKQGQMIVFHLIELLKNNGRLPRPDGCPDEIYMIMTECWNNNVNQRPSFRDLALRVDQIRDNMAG
protocol_description: phosphorylation enrichment, bacterial display (enrichment ratio); higher = better substrate or ligand; peptides without Tyr show the background
Parameter threshold = 1. Response is 1 when phosphorylation enrichment meets or exceeds it, else -1.

Query string: Is the recorded value of phosphorylation enrichment equal to or greater than 1 for this sequence? KEELAYLKKNH [KRT14_Y248]
Result string: -1

Query string: Is the recorded value of phosphorylation enrichment equal to or greater than 1 for this sequence? RKIMGYSIRTI [IDS_Y490_I485R]
Result string: -1

Query string: Is the recorded value of phosphorylation enrichment equal to or greater than 1 for this sequence? TKDTFYKQRMF [GBA_Y451_P454R]
Result string: -1

Query string: Is the recorded value of phosphorylation enrichment equal to or greater than 1 for this sequence? KLKRSYSSPDI [USP8_Y717]
Result string: -1

More entries:
Query string: Is the recorded value of phosphorylation enrichment equal to or greater than 1 for this sequence? RRNTYYASIAK [ACADM_Y353]
Result string: 1

Query string: Is the recorded value of phosphorylation enrichment equal to or greater than 1 for this sequence? PTTKTYFPHFH [HBA1_Y43_D48H]
Result string: -1

Query string: Is the recorded value of phosphorylation enrichment equal to or greater than 1 for this sequence? HDRNTYEKYLE [TF_Y666_G671E]
Result string: 1

* * *

measurement_target: FGFR3 (UniProt P22607)
Sequence (P22607 whole entry, looked up): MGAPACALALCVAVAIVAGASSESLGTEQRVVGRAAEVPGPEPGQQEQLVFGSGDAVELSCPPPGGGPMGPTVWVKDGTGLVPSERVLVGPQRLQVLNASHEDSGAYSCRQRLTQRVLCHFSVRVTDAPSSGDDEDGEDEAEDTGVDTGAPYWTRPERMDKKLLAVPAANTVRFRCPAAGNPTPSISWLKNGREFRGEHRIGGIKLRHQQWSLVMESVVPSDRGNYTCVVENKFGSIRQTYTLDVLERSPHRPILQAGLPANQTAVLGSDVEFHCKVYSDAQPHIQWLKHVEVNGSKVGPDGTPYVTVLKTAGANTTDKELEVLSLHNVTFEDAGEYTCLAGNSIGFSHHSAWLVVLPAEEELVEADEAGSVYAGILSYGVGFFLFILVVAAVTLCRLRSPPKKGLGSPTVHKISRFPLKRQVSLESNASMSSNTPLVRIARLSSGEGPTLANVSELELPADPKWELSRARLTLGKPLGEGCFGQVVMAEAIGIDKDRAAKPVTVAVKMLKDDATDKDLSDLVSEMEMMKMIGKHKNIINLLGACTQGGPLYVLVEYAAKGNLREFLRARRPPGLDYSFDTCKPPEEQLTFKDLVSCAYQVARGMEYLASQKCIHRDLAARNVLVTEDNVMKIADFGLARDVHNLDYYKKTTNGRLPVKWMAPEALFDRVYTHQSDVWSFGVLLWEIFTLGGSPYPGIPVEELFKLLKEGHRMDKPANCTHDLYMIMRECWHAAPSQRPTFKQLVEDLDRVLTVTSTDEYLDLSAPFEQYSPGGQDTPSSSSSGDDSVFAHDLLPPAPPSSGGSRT
protocol_description: phosphorylation enrichment, bacterial display (enrichment ratio); higher = better substrate or ligand; peptides without Tyr show the background
property_label: phosphorylation enrichment
Note: the reply should be a number with no unit written.

Example results:
Query string: // lookup phosphorylation enrichment for KPNMNYDKLSQ [FLI1_Y332_R337Q]
Result string: 0.447

Query string: // lookup phosphorylation enrichment for TQNGVYSAANF [DDX5_Y535_YF]
Result string: 0.443

Query string: // lookup phosphorylation enrichment for GADDSYYTVRS [ZAP70_Y492_A495V]
Result string: 3.76

Query string: // lookup phosphorylation enrichment for APSHAYHRGVL [ANO1_Y981_G983R]
Result string: 0.472

Query string: // lookup phosphorylation enrichment for ASLLPYFPAIM [IPO4_Y518]
Result string: 0.694

More entries:
Query string: // lookup phosphorylation enrichment for TTKVSYRASQP [MKI67_Y1737]
Result string: 0.334

Query string: // lookup phosphorylation enrichment for TTGGFYSYGGG [KRT24_Y120_A115T]
Result string: 0.664

Query string: // lookup phosphorylation enrichment for FETSHYPASPD [CTNND2_Y1217_YF]
Result string: 0.508

Query string: // lookup phosphorylation enrichment for EERKTYVNTML [TEK_Y1102_T1106M]
Result string: 0.506

Query string: // lookup phosphorylation enrichment for GGTTLYPGIAD [ACTC1_Y308_M307L]
Result string: 0.548

Query string: // lookup phosphorylation enrichment for FPHVISARLWR [SMAD4_Y95_Y95S]
Result string: 0.557

Query string: // lookup phosphorylation enrichment for DLDATYRPMFS [JUP_Y701_M697L_YF]
Result string: 0.557

Query string: // lookup phosphorylation enrichment for FAAAGYGSLEA [EPHA10_Y959]
Result string: 0.535

Query string: // lookup phosphorylation enrichment for SSPMKYQQNVS [EGFEM1P_Y160]
Result string: 0.408

* * *

Tested on: c-Src
protocol_description: phosphorylation enrichment, bacterial display (enrichment ratio); higher = better substrate or ligand; peptides without Tyr show the background
Parameter threshold = 0.4. Response is 1 when phosphorylation enrichment meets or exceeds it, else 0.

// known answers, use as guide
Query string: Is the recorded value of phosphorylation enrichment equal to or greater than 0.4 for this sequence? ASTDYYKRGDF [PDHA1_Y243]
Result string: 1

Query string: Is the recorded value of phosphorylation enrichment equal to or greater than 0.4 for this sequence? NSRFTYKLEVK [USH2A_Y3747_YF]
Result string: 0

Query string: Is the recorded value of phosphorylation enrichment equal to or greater than 0.4 for this sequence? RPSELYYSKIS [SMG1_Y2253_G2258S]
Result string: 1

More entries:
Query string: Is the recorded value of phosphorylation enrichment equal to or greater than 0.4 for this sequence? LVPPRYVRSEI [PKP2_Y194_A195V]
Result string: 1

Query string: Is the recorded value of phosphorylation enrichment equal to or greater than 0.4 for this sequence? AALKLYHVSDS [VIL1_Y256]
Result string: 1

* * *

measurement_target: Jak2 (UniProt O60674)
protocol_description: phosphorylation enrichment, bacterial display (enrichment ratio); higher = better substrate or ligand; peptides without Tyr show the background
property_label: phosphorylation enrichment
Note: the reply should be a number with no unit written.

Example results:
Query string: // lookup phosphorylation enrichment for AGADGYDYLAP [FOXL2_Y186_G187D]
Result string: 0.997

Query string: // lookup phosphorylation enrichment for PLDGEYFTLQI [TP53_Y327]
Result string: 4.17

Query string: // lookup phosphorylation enrichment for FKIFRYTLNDN [FN1_Y1975_L1974R_YF]
Result string: 1.01

More entries:
Query string: // lookup phosphorylation enrichment for RENGPYYASYP [GDAP2_Y487_T489A]
Result string: 0.661

Query string: // lookup phosphorylation enrichment for PDNKPYIFKVF [PIK3AP1_Y553_E551K]
Result string: 1.03

Query string: // lookup phosphorylation enrichment for WVFNHYRWFIW [BRCA2_Y2624_I2627F_YF]
Result string: 1.25

Query string: // lookup phosphorylation enrichment for WGLCSYYETSK [MAGED2_Y448_R446C]
Result string: 1.35
